system: Caspase-1 (Mus musculus) (UniProt P29452)
Sequence (whole entry): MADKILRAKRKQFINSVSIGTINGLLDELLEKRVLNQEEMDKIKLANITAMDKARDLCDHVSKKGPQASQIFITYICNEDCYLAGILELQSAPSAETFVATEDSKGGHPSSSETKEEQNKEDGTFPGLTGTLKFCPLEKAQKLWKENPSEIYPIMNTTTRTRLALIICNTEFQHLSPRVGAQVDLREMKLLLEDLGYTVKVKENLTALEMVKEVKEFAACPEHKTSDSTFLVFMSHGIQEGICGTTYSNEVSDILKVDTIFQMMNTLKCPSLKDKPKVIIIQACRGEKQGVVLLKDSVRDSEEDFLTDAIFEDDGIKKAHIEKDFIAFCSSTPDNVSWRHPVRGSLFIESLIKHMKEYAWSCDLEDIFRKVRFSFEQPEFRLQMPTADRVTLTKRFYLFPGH
protocol_description: Binding affinity against mouse Caspase-1
# k3/ki per entry

Asked: # k3/ki lookup, item CC(C)[C@H](NC(=O)COc1cccc2ccccc12)C(=O)N[C@@H](CC(=O)O)C(=O)CSc1nccn1C
Given back: 1200 1/m/s

Asked: Give its k3/ki value. Item: CC(C)[C@H](NC(=O)COc1cccc2ccccc12)C(=O)N[C@@H](CC(=O)O)C(=O)COc1ccccn1
Given back: 138 1/m/s

Asked: Report k3/ki for CC(C)[C@H](NC(=O)COc1cccc2ccccc12)C(=O)N[C@@H](CC(=O)O)C(=O)COn1nnc2ccccc2c1=O please.
Given back: 45400 1/m/s

* * *

Tested on: Jurkat
protocol_description: Inhibitory concentration for cellular activity in jurkat assay
Format: functional, cell-based
cond: Homo sapiens
pIC50: −log10 of the molar value.
The entries below come with measured pIC50 values attached.

Record excerpt, results attached:
INSERT INTO measurements (cpd_smiles, result) VALUES
  ('CC(C)[C@H](NC(=O)COc1cccc2ccccc12)C(=O)N[C@@H](CC(=O)O)C(=O)COn1nnc2ccccc2c1=O', 3.86),
  ('CC(C)[C@H](NC(=O)COc1cccc2ccccc12)C(=O)N[C@@H](CC(=O)O)C(=O)CSc1nc[nH]n1', '< 3.70'),
  ('CC(C)c1cc(OCC(=O)[C@H](CC(=O)O)NC(=O)[C@@H](NC(=O)COc2cccc3ccccc23)C(C)C)no1', '< 3.70'),
  ('CC(C)[C@H](NC(=O)COc1cccc2ccccc12)C(=O)N[C@@H](CC(=O)O)C(=O)CSc1nnnn1C', '< 3.70'),
  ('CC(C)[C@H](NC(=O)COc1cccc2ccccc12)C(=O)N[C@@H](CC(=O)O)C(=O)COc1nccc(C(F)(F)F)n1', '< 3.70');

Asked: # input compound: CCOC(=O)c1c(C)noc1OCC(=O)[C@H](CC(=O)O)NC(=O)[C@@H](NC(=O)COc1cccc2ccccc12)C(C)C ; wanted: its pIC50
Given back: < 3.70

Asked: Name the recorded pIC50 for CC(C)[C@H](NC(=O)COc1cccc2ccccc12)C(=O)N[C@@H](CC(=O)O)C(=O)COc1nccc2ccccc12 .
Given back: 3.97

Asked: Recorded pIC50 of CC(C)[C@H](NC(=O)COc1cccc2ccccc12)C(=O)N[C@@H](CC(=O)O)C(=O)CSc1nccn1C , please.
Given back: < 3.70

Asked: Record request: pIC50 value, item CC(C)[C@H](NC(=O)COc1cccc2ccccc12)C(=O)N[C@@H](CC(=O)O)C(=O)CSc1nc2ccccc2s1
Given back: < 3.70

Asked: Using the record for CC(C)[C@H](NC(=O)COc1cccc2ccccc12)C(=O)N[C@@H](CC(=O)O)C(=O)COc1ccccn1 , report its pIC50.
Given back: < 3.70

Asked: What does the record list as pIC50 for CC(C)[C@H](NC(=O)COc1cccc2ccccc12)C(=O)N[C@@H](CC(=O)O)C(=O)COc1ncnc2ccccc12 ?
Given back: < 3.70

Asked: What measured pIC50 goes with CC(C)[C@H](NC(=O)COc1cccc2ccccc12)C(=O)N[C@@H](CC(=O)O)C(=O)CSc1nc2ccccc2o1 ?
Given back: < 3.70

Asked: Given Cc1nnc(SCC(=O)[C@H](CC(=O)O)NC(=O)[C@@H](NC(=O)COc2cccc3ccccc23)C(C)C)s1 , state its recorded pIC50.
Given back: 3.72

Asked: Entry CC(C)[C@H](NC(=O)COc1cccc2ccccc12)C(=O)N[C@@H](CC(=O)O)C(=O)CSc1nc(-c2ccccc2)c(-c2ccccc2)[nH]1 : reported pIC50 = ?
Given back: < 3.70

Asked: Could you tell me which pIC50 is on file for CC(C)[C@H](NC(=O)COc1cccc2ccccc12)C(=O)N[C@@H](CC(=O)O)C(=O)COc1nc2ccccc2[nH]1 ?
Given back: < 3.70

* * *

Test system: Jurkat
protocol_description: Inhibitory concentration for cellular activity in jurkat assay
Assay type: functional, cell-based
cond: Homo sapiens
pIC50: −log10 of the molar value.
observation_type: pIC50

(I) CC(C)[C@H](NC(=O)COc1cccc2ccccc12)C(=O)N[C@@H](CC(=O)O)C(=O)COc1ccnc(C(F)(F)F)n1
(II) CC(C)[C@H](NC(=O)COc1cccc2ccccc12)C(=O)N[C@@H](CC(=O)O)C(=O)COc1[nH]cnc2nncc1-2
Asked: Could you tell me which of these two has the smaller pIC50 figure? First: I Second: II Bench note: the answer is the label of the chosen record.
Given back: II

(I) COC(=O)c1cc(OCC(=O)[C@H](CC(=O)O)NC(=O)[C@@H](NC(=O)COc2cccc3ccccc23)C(C)C)no1
(II) CC(C)[C@H](NC(=O)COc1cccc2ccccc12)C(=O)N[C@@H](CC(=O)O)C(=O)CSc1nnnn1-c1ccccc1
Asked: Which of the two items, I and II , has the greater recorded pIC50? Refer to your chosen item by its label in the answer.
Given back: I
(I: 4.15, II: 3.82)

* * *

system: Caspase-3 (Homo sapiens)
protocol_description: Binding affinity against Caspase-3
Quick list: k3/ki per entry.

INSERT INTO measurements (cpd_smiles, system, result) VALUES
  ('CC(C)[C@H](NC(=O)COc1cccc2ccccc12)C(=O)N[C@@H](CC(=O)O)C(=O)COc1cccc2cccnc12', 'Caspase-3 (Homo sapiens)', '4360 1/m/s'),
  ('CC(C)[C@H](NC(=O)COc1cccc2ccccc12)C(=O)N[C@@H](CC(=O)O)C(=O)COc1cc(C(F)(F)F)n(C)n1', 'Caspase-3 (Homo sapiens)', '35500 1/m/s'),
  ('CC(C)[C@H](NC(=O)COc1cccc2ccccc12)C(=O)N[C@@H](CC(=O)O)C(=O)CSc1nc2ccccc2s1', 'Caspase-3 (Homo sapiens)', '3570 1/m/s');

Asked: Would you mind telling me what k3/ki value was observed for CC(C)[C@H](NC(=O)COc1cccc2ccccc12)C(=O)N[C@@H](CC(=O)O)C(=O)CSc1nnnn1-c1ccccc1 ?
Given back: 19200 1/m/s

Asked: # k3/ki lookup, item CC(C)[C@H](NC(=O)COc1cccc2ccccc12)C(=O)N[C@@H](CC(=O)O)C(=O)CSc1nc[nH]n1
Given back: 401 1/m/s

Asked: Record request: k3/ki value, item CC(C)[C@H](NC(=O)COc1cccc2ccccc12)C(=O)N[C@@H](CC(=O)O)C(=O)COc1nccc(C(F)(F)F)n1
Given back: 0 1/m/s

* * *

system: UniProt:Q14790
Sequence (Q14790 217-374 limits assumed): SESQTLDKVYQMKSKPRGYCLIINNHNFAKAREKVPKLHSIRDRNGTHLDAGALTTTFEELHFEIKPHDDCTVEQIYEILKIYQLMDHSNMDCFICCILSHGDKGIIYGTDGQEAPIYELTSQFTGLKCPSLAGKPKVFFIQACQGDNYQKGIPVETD
Sequence (Q14790 385-479 limits assumed): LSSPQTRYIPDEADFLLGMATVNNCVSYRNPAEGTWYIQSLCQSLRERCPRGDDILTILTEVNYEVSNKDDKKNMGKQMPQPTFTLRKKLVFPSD
protocol_description: Binding affinity against Caspase-8
observation_type: k3/ki

Example molecules with recorded k3/ki:
INSERT INTO measurements (cpd_smiles, system, observation_type, result) VALUES
  ('COC(=O)c1cc(OCC(=O)[C@H](CC(=O)O)NC(=O)[C@@H](NC(=O)COc2cccc3ccccc23)C(C)C)no1', 'UniProt:Q14790', 'k3/ki', '6340 1/m/s'),
  ('CC(C)[C@H](NC(=O)COc1cccc2ccccc12)C(=O)N[C@@H](CC(=O)O)C(=O)CSc1nc2ccccc2[nH]1', 'UniProt:Q14790', 'k3/ki', '10 1/m/s'),
  ('CC(C)[C@H](NC(=O)COc1cccc2ccccc12)C(=O)N[C@@H](CC(=O)O)C(=O)COc1cccc2cccnc12', 'UniProt:Q14790', 'k3/ki', '39 1/m/s'),
  ('Cc1nnc(SCC(=O)[C@H](CC(=O)O)NC(=O)[C@@H](NC(=O)COc2cccc3ccccc23)C(C)C)s1', 'UniProt:Q14790', 'k3/ki', '0 1/m/s'),
  ('CC(C)[C@H](NC(=O)COc1cccc2ccccc12)C(=O)N[C@@H](CC(=O)O)C(=O)COn1nnc2ccccc21', 'UniProt:Q14790', 'k3/ki', '14500 1/m/s');

Asked: Dear colleague, I am looking for the recorded k3/ki of the following molecule: CC(C)c1cc(OCC(=O)[C@H](CC(=O)O)NC(=O)[C@@H](NC(=O)COc2cccc3ccccc23)C(C)C)no1
Given back: 279 1/m/s

Asked: Entry CC(C)[C@H](NC(=O)COc1cccc2ccccc12)C(=O)N[C@@H](CC(=O)O)C(=O)CSc1nnnn1-c1ccccc1 : reported k3/ki = ?
Given back: 0 1/m/s

Asked: Reported k3/ki for CC(C)[C@H](NC(=O)COc1cccc2ccccc12)C(=O)N[C@@H](CC(=O)O)C(=O)CSc1nnc(-c2ccccc2)o1 : what is it?
Given back: 276 1/m/s

Source of measurements: ChEMBL document CHEMBL1144434
